System: U251 CNS
Experimental Details: NCI-60 one-dose screen, 48 h
Measurement Context: 10 µM unless noted
This is part of a sample that, as a whole, favours compounds with a hit. Of some 83,000 tested, about 20% had one in any assay. The source made the active and inactive calls. The calls were made as follows: active = growth percent below 10; inactive = the rest.
Entry note: the call must match one of active, inactive

For this compound, state the assay outcome: CN1CCN(Cc2ccc(NC(=O)c3cncc(C#Cc4cnccc4C#N)c3)cc2C(F)(F)F)CC1
inactive

Next up: CCCCOc1nc2ccc(OC)cc2cc1-c1cc(-c2ccc(Cl)cc2)nc(-c2ccc(Cl)cc2)c1
inactive

Entry COc1ccc(C2=Nn3c(nnc3-c3cc(Cl)cc(Cl)c3Cl)SC2)cc1 please
inactive

Another compound: OC(COc1ccccc1)CN1CCN(c2ccc(Cl)cc2)CC1 (stereo not drawn)
inactive

Would you kindly repeat that for Cc1ccc2sc3c(NCCN)nc4ccccc4c3c(=O)c2c1 ?
inactive

What about this compound? COc1ccc(C2CC(c3ccc(Nc4nc(Nc5ccc(F)cc5)nc(Nc5ccc(Cl)cc5)n4)cc3)=NN2C(C)=O)cc1 (stereo not drawn)
inactive

Field entry: O=C(N/N=C/[C@H](O)[C@H](O)[C@H](O)CO)c1ccc(NC(=O)c2cccnc2)cc1
inactive

// next record COc1cc(CCC[P+](c2ccccc2)(c2ccccc2)c2ccccc2)c(OC)c(OC)c1OC
inactive

Same lookup for COc1ccc2sc3c(NCCCNCCO)nc4ccccc4c3c(=O)c2c1 , please.
inactive

Could you do the same for CN1C(=O)CNC(=O)[C@H](NC(=O)c2nc3ccccc3cc2O)CSSC[C@H]1C(=O)NCCc1nc2ccccc2cc1O , please?
inactive

Check CCCCOc1nc2c(C)cccc2cc1-c1cc(-c2ccc(Cl)cc2)nc(-c2ccc(Cl)cc2)c1 too.
inactive

Follow-up item: CCOC(=O)C1=C(N)Oc2c(sc3c(CC)cccc23)C1c1ccc(F)cc1 (stereo not drawn)
inactive

What about this compound? COc1ccc2sc3c(NCCCN(C)C)nc4ccccc4c3c(=O)c2c1
active
